system tested: P450BM-3 (102A1) (Priestia megaterium, UniProt P14779)
Sequence (P14779 whole entry): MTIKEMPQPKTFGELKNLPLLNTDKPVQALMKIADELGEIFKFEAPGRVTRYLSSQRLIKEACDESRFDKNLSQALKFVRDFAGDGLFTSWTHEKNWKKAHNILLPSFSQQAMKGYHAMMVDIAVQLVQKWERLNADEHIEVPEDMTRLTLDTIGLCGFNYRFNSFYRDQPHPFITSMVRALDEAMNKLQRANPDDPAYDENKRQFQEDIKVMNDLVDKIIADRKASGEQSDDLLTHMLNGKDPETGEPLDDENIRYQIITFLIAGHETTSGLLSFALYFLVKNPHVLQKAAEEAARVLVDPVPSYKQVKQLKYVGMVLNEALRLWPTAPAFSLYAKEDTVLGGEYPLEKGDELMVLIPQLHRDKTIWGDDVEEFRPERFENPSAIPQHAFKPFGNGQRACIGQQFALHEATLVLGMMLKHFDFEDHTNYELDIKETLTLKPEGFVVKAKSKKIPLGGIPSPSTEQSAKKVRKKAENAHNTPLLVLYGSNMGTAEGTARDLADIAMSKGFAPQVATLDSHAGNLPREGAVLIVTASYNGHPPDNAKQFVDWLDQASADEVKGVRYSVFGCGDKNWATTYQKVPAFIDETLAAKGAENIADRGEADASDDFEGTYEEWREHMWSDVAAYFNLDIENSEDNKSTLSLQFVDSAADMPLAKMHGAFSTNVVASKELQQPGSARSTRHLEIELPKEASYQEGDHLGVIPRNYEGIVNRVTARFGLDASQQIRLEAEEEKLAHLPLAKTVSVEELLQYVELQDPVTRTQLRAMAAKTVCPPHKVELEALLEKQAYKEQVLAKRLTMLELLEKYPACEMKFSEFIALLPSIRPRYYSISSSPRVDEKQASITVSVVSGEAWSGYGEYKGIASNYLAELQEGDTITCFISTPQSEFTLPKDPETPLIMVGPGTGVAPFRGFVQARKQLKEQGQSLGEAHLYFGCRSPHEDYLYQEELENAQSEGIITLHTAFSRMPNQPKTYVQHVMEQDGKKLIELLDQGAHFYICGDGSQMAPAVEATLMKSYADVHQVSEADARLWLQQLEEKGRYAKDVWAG
endpoint label: Kd

Item under review: CC(=O)CCCCCCCCCCC(=O)O . Reported Kd?
~250 µM

====

system tested: P450 11A1 (Homo sapiens, UniProt P05108)
Sequence (P05108 40-521): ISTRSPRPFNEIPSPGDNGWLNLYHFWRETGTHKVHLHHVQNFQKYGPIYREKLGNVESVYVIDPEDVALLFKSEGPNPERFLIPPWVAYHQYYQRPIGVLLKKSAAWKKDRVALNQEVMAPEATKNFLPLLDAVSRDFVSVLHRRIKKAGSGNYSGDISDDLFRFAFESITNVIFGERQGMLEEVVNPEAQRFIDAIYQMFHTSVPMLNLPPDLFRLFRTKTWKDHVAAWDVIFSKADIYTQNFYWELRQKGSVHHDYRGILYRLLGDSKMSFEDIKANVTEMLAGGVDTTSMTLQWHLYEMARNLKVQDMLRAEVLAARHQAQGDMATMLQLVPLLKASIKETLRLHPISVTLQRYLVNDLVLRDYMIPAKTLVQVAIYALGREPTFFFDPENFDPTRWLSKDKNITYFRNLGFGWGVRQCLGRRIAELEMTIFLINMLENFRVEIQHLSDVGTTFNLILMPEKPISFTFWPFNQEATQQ
endpoint label: pKd
Answers are plain numbers, as −log10 of the molar value.

Item under review: CC(C)CCC(=O)[C@@H](C)[C@H]1CC[C@H]2[C@@H]3CC=C4C[C@@H](O)CC[C@]4(C)[C@H]3CC[C@]12C . Reported pKd?
4.37
